- Tested on: MDA-MB-468 breast
- experimentalDetails: NCI tumour cell line growth inhibition, 48 h; in the data active = GI50 below about 0.43 µM; inactive = the rest
Lab note: assign the record to one of active, inactive

Look over these answered cases.
{"columns": ["compound", "assaySystem", "assignedClass"],
 "data": [
  ["Nc1nc2c(c3ncccc13)C(c1cccc(Cl)c1)Cc1ncccc1-2 (stereo not drawn)", "MDA-MB-468 breast", "inactive"],
  ["N#C/C(=C\\c1ccc(Br)cc1)n1nnc2cccc(F)c21", "MDA-MB-468 breast", "active"],
  ["COc1ccc(-c2cnc(-c3ccc(F)cc3)[nH]2)cc1", "MDA-MB-468 breast", "inactive"],
  ["Cc1ccc(N=C2CSc3nnc(-c4csc5c4CCCC5)n3N2)cc1", "MDA-MB-468 breast", "active"],
  ["CS(=O)(=O)N1CCN(Cc2cc3nc(-c4cccc5[nH]ncc45)nc(N4CCOCC4)c3s2)CC1 (tested in a mixture with another compound)", "MDA-MB-468 breast", "active"],
  ["CC(CN)[C@@H]1CC[C@]2(CO)CC[C@]3(C)[C@H](CC[C@@H]4[C@@]5(C)CCC(NCCO)C(C)(C)[C@@H]5CC[C@]43C)[C@@H]12 (stereo partly drawn)", "MDA-MB-468 breast", "inactive"],
  ["C=C1C(=O)O[C@H]2[C@H]1CC/C(COC(=O)C(=O)c1c[nH]c3ccc(OC)cc13)=C\\CC[C@@]1(C)O[C@@H]21", "MDA-MB-468 breast", "inactive"]
]}

Consider the additional compound presented here.
I would be grateful if you could indicate the recorded call for Nc1nc2ccc([C@@H]3Nc4ccc5[nH]ncc5c4[C@H]4[C@H]5CCC(C5)[C@H]43)cc2s1 .
active
